Target: IRAK-4 (Homo sapiens, UniProt Q9NWZ3)
Sequence (Q9NWZ3 whole entry): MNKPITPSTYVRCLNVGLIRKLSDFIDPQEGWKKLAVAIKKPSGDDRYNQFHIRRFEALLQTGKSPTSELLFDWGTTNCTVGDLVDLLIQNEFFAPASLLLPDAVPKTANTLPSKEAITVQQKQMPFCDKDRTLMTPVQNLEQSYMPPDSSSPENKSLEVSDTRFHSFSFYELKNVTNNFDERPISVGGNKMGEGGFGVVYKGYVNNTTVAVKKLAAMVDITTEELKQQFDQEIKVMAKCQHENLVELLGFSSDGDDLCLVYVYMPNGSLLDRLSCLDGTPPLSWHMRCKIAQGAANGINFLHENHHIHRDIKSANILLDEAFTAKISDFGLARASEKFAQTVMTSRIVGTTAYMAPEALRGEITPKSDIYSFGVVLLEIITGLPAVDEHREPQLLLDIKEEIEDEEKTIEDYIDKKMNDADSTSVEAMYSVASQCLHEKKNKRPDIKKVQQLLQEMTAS
Test: IRAK-4 ELISA, OCI-Ly10 degradation
Type: cell-based
Parameters: endogenous in cells
Details: OCI-Ly10 cells, treated overnight
measurement_name: DC50

compound: O=C1CCC(N2C(=O)c3ccc(CCN4CCC(N5Cc6cc(NC(=O)c7cnn8cccnc78)c(N7CCOCC7)cc6C5=O)CC4)cc3C2=O)C(=O)N1 (stereo not shown) [Example 37]
DC50: ≥ 100 nM

compound: CC(C)Oc1cc2c(cc1NC(=O)c1cnn3cccnc13)CN(C1CCN(C3CCN(c4ccc5c(c4)C(=O)N(C4CCC(=O)NC4=O)C5=O)CC3)CC1)C2=O (stereo not shown) [Example 64]
DC50: < 10 nM

compound: O=C1CCC(N2C(=O)c3ccc(N4CCC(CN5CCC(n6cc7cc(NC(=O)c8cnn9cc(Cl)cnc89)c(OCC8CC8)cc7n6)CC5)CC4)cc3C2=O)C(=O)N1 (stereo not shown) [Example 128]
DC50: 10 to 50 nM

compound: COc1cc2nn(C3CCN(CCc4ccc5c(c4)CN(C4CCC(=O)NC4=O)C5=O)CC3)cc2cc1NC(=O)c1cnn2cccnc12 (stereo not shown) [Example 143]
DC50: < 10 nM

Problem: Form entry - test system: IRAK-4 (Homo sapiens, UniProt Q9NWZ3); read-out: DC50; compound: O=C1CCC(N2C(=O)c3ccc(N4CCC([C@H](F)Cn5cc6cc(NC(=O)c7cnn8cccnc78)c(OCC7CC7)cc6n5)CC4)cc3C2=O)C(=O)N1 (stereo partly shown) [Example 171]
Solution: 50 to 100 nM

Problem: Form entry - test system: IRAK-4 (Homo sapiens, UniProt Q9NWZ3); read-out: DC50; compound: O=C1CCC(N2C(=O)c3ccc(N4CCC(CN5CC[C@H](n6cc7cc(NC(=O)c8cnn9cccnc89)c(OCC8CC8)cc7n6)[C@@H](F)C5)CC4)cc3C2=O)C(=O)N1 (stereo partly shown) [Example 184]
Solution: < 10 nM

Problem: Form entry - test system: IRAK-4 (Homo sapiens, UniProt Q9NWZ3); read-out: DC50; compound: O=C1CCC(NC(=O)c2ccc(N3CCC(CN4CCC(n5cc6cc(NC(=O)c7cnn8cccnc78)c(OCC7CC7)cc6n5)CC4)CC3)cc2F)C(=O)N1 (stereo not shown) [Example 288]
Solution: < 10 nM

Problem: Form entry - test system: IRAK-4 (Homo sapiens, UniProt Q9NWZ3); read-out: DC50; compound: COc1cc2nn(C3CCN(CC4CN(c5ccc6c(c5)C(=O)N(C5CCC(=O)NC5=O)C6=O)C4)CC3)cc2cc1NC(=O)c1cnn2cccnc12 (stereo not shown) [Example 202]
Solution: < 10 nM

* * *

Below, each entry is listed alongside its reported Dmax.
Biological target: IRAK-4 (Homo sapiens)
Assay: IRAK-4 ELISA, OCI-Ly10 degradation
Type: cell-based
Parameters: endogenous in cells
Conditions: OCI-Ly10, OCI-Ly10 cells, treated overnight

Some entries whose results are on file:
molecule: O=C1CCC(N2C(=O)c3ccc(N4CCC(CN5CC[C@H](n6cc7cc(NC(=O)c8cnn9cccnc89)c(OCC8CC8)cc7n6)[C@@H](F)C5)CC4)cc3C2=O)C(=O)N1 (some centres unmarked) [Example 184]
Dmax: < 70%
//
molecule: COc1cc2nn(C3CCN(CC4(F)CN(c5ccc6c(c5)C(=O)N(C5CCC(=O)NC5=O)C6=O)C4)CC3)cc2cc1NC(=O)c1cnn2cccnc12 (centres unmarked) [Example 207]
Dmax: ≥ 90%
//
molecule: O=C1CCC(N2Cc3cc(N4CCC(CN5CCC(N6Cc7cc(NC(=O)c8cnn9cccnc89)c(N8CCC(N9CCC9)CC8)cc7C6=O)CC5)CC4)ccc3C2=O)C(=O)N1 (centres unmarked) [Example 97]
Dmax: ≥ 90%
//
molecule: O=C1CCC(NC(=O)c2ccc(N3CCC(CN4CCC(n5cc6cc(NC(=O)c7cnn8cc(Cl)cnc78)c(OCC7CC7)cc6n5)CC4)CC3)cc2F)C(=O)N1 (centres unmarked) [Example 289]
Dmax: ≥ 90%
//
molecule: O=C1CCC(N2C(=O)c3ccc(N4CCC(CN5CCC(N6Cc7cc(NC(=O)c8cnn9cc(Cl)cnc89)c(N8CCOCC8)cc7C6=O)CC5)CC4)cc3C2=O)C(=O)N1 (centres unmarked) [Example 33]
Dmax: 80 to 90%
//
molecule: COc1cc2nn(C3CCN(CC4CN(c5cccc6c5n(C)c(=O)n6C5CCC(=O)NC5=O)C4)CC3)cc2cc1NC(=O)c1cnn2cccnc12 (centres unmarked) [Example 379]
Dmax: ≥ 90%
//
molecule: O=C1CCC(N2C(=O)c3ccc(N4CC(CN5CCC([C@H](F)Cn6cc7cc(NC(=O)c8cnn9cccnc89)c(OCC8CC8)cc7n6)CC5)C4)cc3C2=O)C(=O)N1 (some centres unmarked) [Example 173]
Dmax: ≥ 90%
//
molecule: CC(C)(C1CCN(c2ccc3c(c2)C(=O)N(C2CCC(=O)NC2=O)C3=O)CC1)N1CCC(N2Cc3cc(NC(=O)c4cnn5cccnc45)c(OCC4CC4)cc3C2=O)CC1 (centres unmarked) [Example 87]
Dmax: ≥ 90%
//
molecule: O=C1CCC(N2Cc3cc(N4CCC(F)(CN5CCC(n6cc7cc(NC(=O)c8cnn9cccnc89)c(OCC8CC8)cc7n6)CC5)CC4)ccc3C2=O)C(=O)N1 (centres unmarked) [Example 278]
Dmax: 80 to 90%
//
molecule: Cc1cnc2c(C(=O)Nc3cc4c(cc3OC(C)C)C(=O)N(C3CCN(CCc5ccc6c(c5)CN(C5CCC(=O)NC5=O)C6=O)CC3)C4)cnn2c1 (centres unmarked) [Example 9]
Dmax: ≥ 90%

Moving on to the next molecule.
Problem: Quick check: Dmax of O=C1CCC(N2C(=O)c3ccc(N4CCC(CN5CCC(n6cc7cc(NC(=O)c8cnn9cccnc89)c(OCC8CC8)cc7n6)CC5)CC4)cc3C2=O)C(=O)N1 (centres unmarked) [Example 165] ?
Solution: ≥ 90%

* * *

Molecular target: IRAK-4 (Homo sapiens, UniProt Q9NWZ3)
Experiment: IRAK-4 ELISA, PBMC degradation
Type: cell-based
Design: endogenous in cells; host or cells: PBMC
Conditions: treated overnight
measurement_name: DC50

Some entries whose results are on file:
compound: CN(CC1(F)CCN(c2ccc3c(c2)C(=O)N(C2CCC(=O)NC2=O)C3=O)CC1)[C@H]1CC[C@H](n2cc3cc(NC(=O)c4cnn5cccnc45)c(OCC4CC4)cc3n2)CC1 (some centres unmarked) [Example 352]
DC50: 1 to 5 nM
//
compound: CC(C)Oc1cc2c(cc1NC(=O)c1cnn3cccnc13)CN(C1CCN(CC3CN(c4ccc(C(=O)NC5CCC(=O)NC5=O)c(F)c4)C3)CC1)C2=O (centres unmarked) [Example 292]
DC50: < 1 nM
//
compound: CC(C)Oc1cc2c(cc1NC(=O)c1cnn3cccnc13)CN(C1CCC(N(CC(F)(F)F)C3CN(c4ccc5c(c4)C(=O)N(C4CCC(=O)NC4=O)C5=O)C3)CC1)C2=O (centres unmarked) [Example 332]
DC50: ≥ 10 nM
//
compound: CN(CCN1CCN(c2ccc3c(c2)C(=O)N(C2CCC(=O)NC2=O)C3=O)CC1)[C@H]1CC[C@H](n2cc3cc(NC(=O)c4cnn5cccnc45)c(OCC4CC4)cc3n2)CC1 (some centres unmarked) [Example 359]
DC50: < 1 nM
//
compound: CC(C)Oc1cc2c(cc1NC(=O)c1cnn3cccnc13)CN(C1CCN(CC(F)(F)C3CN(c4ccc5c(c4)C(=O)N(C4CCC(=O)NC4=O)C5=O)C3)CC1)C2=O (centres unmarked) [Example 40]
DC50: 5 to 10 nM

Problem: Quick check: DC50 of O=C1CCC(N2C(=O)c3cccc(N4CC(F)(CN5CCC(n6cc7cc(NC(=O)c8cnn9cccnc89)c(OCC8CC8)cc7n6)CC5)C4)c3C2=O)C(=O)N1 (centres unmarked) [Example 270] ?
Solution: ≥ 10 nM

Problem: Quick check: DC50 of CC(C)Oc1cc2c(cc1NC(=O)c1cnn3cccnc13)CN([C@H]1CC[C@H](N(C)C3CN(c4cccc5c4n(C)c(=O)n5C4CCC(=O)NC4=O)C3)CC1)C2=O (some centres unmarked) [Example 384] ?
Solution: < 1 nM

Problem: Quick check: DC50 of O=C1CCC(N2Cc3cc(N4CCC(O)(CN5CCC(n6cc7cc(NC(=O)c8cnn9cccnc89)c(OCC8CC8)cc7n6)CC5)CC4)ccc3C2=O)C(=O)N1 (centres unmarked) [Example 258] ?
Solution: < 1 nM

Problem: Quick check: DC50 of O=C1CCC(N2Cc3c(ccc(N4CCC(CN5CCC(n6cc7cc(NC(=O)c8cnn9cccnc89)c(N8CCN(CC(F)F)CC8)cc7n6)CC5)CC4)c3F)C2=O)C(=O)N1 (centres unmarked) [Example 158] ?
Solution: < 1 nM

Problem: Quick check: DC50 of O=C1CCC(N2C(=O)c3ccc(N4CCC(CN5CCC(N6Cc7cc(NC(=O)c8cnn9cccnc89)c(N8CCN(CC(F)F)CC8)cc7C6=O)CC5)CC4)cc3C2=O)C(=O)N1 (centres unmarked) [Example 52] ?
Solution: 1 to 5 nM

Problem: Quick check: DC50 of CC(C)Oc1cc2c(cc1NC(=O)c1cnn3cccnc13)CN(C1CCN(C(C)(C)C3CN(c4ccc(F)c(C(=O)NC5CCC(=O)NC5=O)c4)C3)CC1)C2=O (centres unmarked) [Example 311] ?
Solution: 5 to 10 nM
